# credit: ChEMBL document CHEMBL1131218

Please respond with reported IC50 for every item in the list.
STUDY_TARGET: Tubulin (Bos taurus, UniProt Q6B856+Q862L2+Q862F3)
ASSAY_PROCEDURE: The compound was tested for the concentration to inhibit 50% of tubulin polymerization.
Type: protein assay
One number for each entry, in µM.

| COMPOUND_STRING | STUDY_TARGET | IC50, µM |
| --- | --- | --- |
| COc1ccc(C(=O)c2cc(OC)c(OC)c(OC)c2)cc1OP(=O)([O-])O.[Na+] | Tubulin (Bos taurus, UniProt Q6B856+Q862L2+Q862F3) | 21 |
| COc1ccc(C(=O)c2cc(OC)c(OC)c(OC)c2)cc1OC(C)=O | Tubulin (Bos taurus, UniProt Q6B856+Q862L2+Q862F3) | 3.5 |

Could you now look at the following molecule, please?
Q. Param readout= IC50; system= Tubulin (Bos taurus, UniProt Q6B856+Q862L2+Q862F3); entry= `COc1ccc(/C=C\c2cc(OC)c(OC)c(OC)c2)cc1` ; returns value.
A. 1.3
